Parameter: pIC50. Scope: all listed entries.
Target: UniProt P06276
// field semantics: pIC50 = negative decimal log of concentration (mol/L)

1. CCNC(=O)Oc1ccc2c(c1)[C@]1(C)CCN(C)[C@@H]1N2C : 8.40
2. CC(C)c1ccc(NC(=O)Oc2ccc3c(c2)[C@@]2(C)CCO[C@H]2O3)cc1 : 7.40
3. CCNC(=O)Oc1ccc2c(c1)[C@@]1(C)CO[C@H](C1)O2 : 7.64
4. CCNC(=O)Oc1ccc2c(c1)[C@]1(C)CCO[C@@H]1N2C : 8.70
5. CC(C)c1ccc(NC(=O)Oc2ccc3c(c2)[C@]2(C)CO[C@@H](C2)O3)cc1 : 7.27

Query: In one line, give reported pIC50 of the entry `CCNC(=O)Oc1ccc2c(c1)[C@]1(C)CCO[C@@H]1O2` .
Response: 8.52

Query: Assign pIC50 to the following record: `Cc1ccccc1NC(=O)Oc1ccc2c(c1)[C@@]1(C)CCO[C@H]1O2`
Response: 4.44

Query: Give pIC50 for `Cc1ccccc1NC(=O)Oc1ccc2c(c1)[C@@]1(C)CO[C@H](C1)O2`
Response: 4.28

* * *

Read-out record for Acetylcholinesterase (Homo sapiens): IC50
Please reply with the bare figure in nM and do not write the unit itself.

1) CCNC(=O)Oc1ccc2c(c1)[C@]1(C)CCN(C)[C@@H]1N2C : 94
2) CCNC(=O)Oc1ccc2c(c1)[C@]1(C)CO[C@@H](C1)O2 : 2420

Query: Identify the reported IC50 for the following entry. `CCNC(=O)Oc1ccc2c(c1)[C@]1(C)CCO[C@@H]1N2C`
Response: 82

* * *

Target: Cholinesterase (Homo sapiens, UniProt P06276)
Sequence (P06276 whole entry): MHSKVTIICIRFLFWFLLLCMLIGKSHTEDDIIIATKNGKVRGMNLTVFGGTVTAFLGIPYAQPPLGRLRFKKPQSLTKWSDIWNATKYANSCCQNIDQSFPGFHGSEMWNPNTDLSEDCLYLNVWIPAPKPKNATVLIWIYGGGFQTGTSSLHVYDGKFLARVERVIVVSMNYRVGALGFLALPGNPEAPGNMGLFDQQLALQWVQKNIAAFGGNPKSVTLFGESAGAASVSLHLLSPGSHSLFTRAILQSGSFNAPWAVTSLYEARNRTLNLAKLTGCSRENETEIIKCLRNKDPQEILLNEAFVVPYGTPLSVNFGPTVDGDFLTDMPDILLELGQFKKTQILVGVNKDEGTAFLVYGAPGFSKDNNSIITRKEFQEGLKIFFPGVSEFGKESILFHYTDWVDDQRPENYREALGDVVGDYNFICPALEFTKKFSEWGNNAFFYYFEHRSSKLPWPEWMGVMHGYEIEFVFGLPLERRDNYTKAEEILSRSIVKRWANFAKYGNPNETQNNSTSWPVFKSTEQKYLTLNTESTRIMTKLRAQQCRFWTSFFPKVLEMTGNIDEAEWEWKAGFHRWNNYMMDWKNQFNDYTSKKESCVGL
// classify: if (IC50 < 60 nM) True else False

For orientation, consider the following solved cases.
1. CC(C)c1ccc(NC(=O)Oc2ccc3c(c2)[C@@]2(C)CO[C@H](C2)O3)cc1 : True
2. Cc1ccccc1NC(=O)Oc1ccc2c(c1)[C@]1(C)CCO[C@@H]1O2 : False
3. CNC(=O)Oc1ccc2c(c1)[C@@]1(C)CCO[C@H]1N2C : True
4. CCNC(=O)Oc1ccc2c(c1)[C@]1(C)CO[C@@H](C1)O2 : False
5. CCNC(=O)Oc1ccc2c(c1)[C@@]1(C)CCO[C@H]1O2 : True

Query: Does the reported IC50 of `CC(C)c1ccc(NC(=O)Oc2ccc3c(c2)[C@@]2(C)CCO[C@H]2N3C)cc1` stay below 60 nM?
Response: True

Query: Hi there! Is IC50 for `CC(C)c1ccc(NC(=O)Oc2ccc3c(c2)[C@]2(C)CCO[C@@H]2N3C)cc1` below 60 nM, do you know?
Response: True

Query: Take the compound `Cc1ccccc1NC(=O)Oc1ccc2c(c1)[C@@]1(C)CCO[C@H]1N2C` and say whether its IC50 is less than 60 nM.
Response: False

Query: State whether 60 nM exceeds IC50 recorded for `CNC(=O)Oc1ccc2c(c1)[C@]1(C)CCO[C@@H]1N2C` .
Response: True

Query: Consider `CC(C)c1ccc(NC(=O)Oc2ccc3c(c2)[C@]2(C)CCO[C@@H]2O3)cc1` . Does its IC50 lie strictly below 60 nM?
Response: True

* * *

// Acetylcholinesterase (Homo sapiens) IC50 records
Units required after the number.

Examples from the recorded data:
1) Cc1ccccc1NC(=O)Oc1ccc2c(c1)[C@@]1(C)CCN(C)[C@H]1N2C : 5510 nM
2) CNC(=O)Oc1ccc2c(c1)[C@@]1(C)CCO[C@H]1N2C : 56 nM
3) Cc1ccccc1NC(=O)Oc1ccc2c(c1)[C@@]1(C)CO[C@H](C1)O2 : 38 nM
4) Cc1ccccc1NC(=O)Oc1ccc2c(c1)[C@]1(C)CO[C@@H](C1)O2 : 97 nM

Query: State IC50 on Acetylcholinesterase (Homo sapiens). Entry: `CC(C)c1ccc(NC(=O)Oc2ccc3c(c2)[C@]2(C)CCO[C@@H]2N3C)cc1`
Sequence (P22303 whole entry): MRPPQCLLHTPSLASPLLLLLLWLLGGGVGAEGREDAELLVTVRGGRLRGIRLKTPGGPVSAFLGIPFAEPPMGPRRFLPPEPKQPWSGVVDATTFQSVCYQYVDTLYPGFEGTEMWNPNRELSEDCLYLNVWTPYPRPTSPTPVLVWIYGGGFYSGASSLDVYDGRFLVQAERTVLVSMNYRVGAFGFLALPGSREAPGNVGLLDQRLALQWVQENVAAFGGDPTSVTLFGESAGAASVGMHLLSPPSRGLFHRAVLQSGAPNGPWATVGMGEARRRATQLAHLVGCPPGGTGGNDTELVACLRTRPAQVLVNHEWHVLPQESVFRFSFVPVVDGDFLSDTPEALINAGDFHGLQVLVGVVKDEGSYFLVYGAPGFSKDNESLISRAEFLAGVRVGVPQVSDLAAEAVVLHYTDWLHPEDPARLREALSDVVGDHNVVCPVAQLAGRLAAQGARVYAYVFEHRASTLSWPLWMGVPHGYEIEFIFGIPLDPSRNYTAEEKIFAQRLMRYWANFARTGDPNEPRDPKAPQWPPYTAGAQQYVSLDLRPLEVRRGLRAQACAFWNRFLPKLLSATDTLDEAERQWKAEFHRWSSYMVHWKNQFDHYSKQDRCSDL
Response: 3860 nM

Query: State measured IC50 of the compound `CC(C)c1ccc(NC(=O)Oc2ccc3c(c2)[C@]2(C)CO[C@@H](C2)O3)cc1` with Acetylcholinesterase (Homo sapiens).
Response: 3430 nM

Query: Report value: IC50, system: Acetylcholinesterase (Homo sapiens), compound: `CCNC(=O)Oc1ccc2c(c1)[C@@]1(C)CO[C@H](C1)O2`
Response: 610 nM

Query: For Acetylcholinesterase (Homo sapiens), give the measured IC50 of the entry `CCNC(=O)Oc1ccc2c(c1)[C@@]1(C)CCO[C@H]1O2`
Response: 486 nM

Query: Enter measured IC50, system Acetylcholinesterase (Homo sapiens), for the compound shown: `Cc1ccccc1NC(=O)Oc1ccc2c(c1)[C@@]1(C)CCO[C@H]1N2C`
Response: 142 nM

Query: Recall the reported IC50 of `CCNC(=O)Oc1ccc2c(c1)[C@]1(C)CCO[C@@H]1O2` on Acetylcholinesterase (Homo sapiens) and write it down.
Response: 100 nM
